Biological target: T1, recombinant human Siglec-8 extracellular domain (ECD) (human, UniProt Q9NYZ4 17-363)
T1 construct: extracellular domain; also called Siglec-8 ECD; full Siglec-8 ECD
T1 sequence (Q9NYZ4 17-363): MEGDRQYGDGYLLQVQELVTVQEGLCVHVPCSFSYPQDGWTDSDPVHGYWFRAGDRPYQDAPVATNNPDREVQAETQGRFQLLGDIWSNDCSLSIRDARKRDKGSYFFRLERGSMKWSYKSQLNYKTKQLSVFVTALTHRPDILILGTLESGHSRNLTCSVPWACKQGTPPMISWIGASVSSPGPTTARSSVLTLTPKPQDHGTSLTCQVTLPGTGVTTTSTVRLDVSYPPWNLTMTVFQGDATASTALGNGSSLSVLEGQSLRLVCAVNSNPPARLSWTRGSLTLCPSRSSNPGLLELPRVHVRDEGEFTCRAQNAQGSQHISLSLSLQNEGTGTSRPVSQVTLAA
Assay: ELISA, coated Siglec-8 ECD
Parameter: EC50. Scope: all listed entries.
Record the value in pM, omitting the unit from your answer.

The following binders have reported results that may help.
1) RHE Y-VKF (antibody, human IgG1, V domains shown, human IgG1/kappa) VH: EVQLVESGGGLVQPGGSLRLSCAASGFSLTIYGAHWVRQAPGKGLEWVGVIWAGGSTNYNSALMSRFTISKDNSKNTVYLQMNSLRAEDTAVYYCARDGSSPYYYSMEVWGQGTTVTVSS VL: EIVLTQSPATLSLSPGERATLSCSATSSVSYMHWFQQKPGQAPRLLIYSTSNLASGIPARFSGSGSGTDYTLTISSLEPEDFAVYYCQQRSSYPFTFGPGTKLDIK = 91
2) RHE S-GKG (antibody, human IgG1, V domains shown, human IgG1/kappa) VH: EVQLVESGGGLVQPGGSLRLSCAASGFSLTIYGAHWVRQAPGKGLEWVGVIWAGGSTNYNSALMSRFTISKDNSKNTVYLQMNSLRAEDTAVYYCARDGSSPYYYGMEYWGQGTTVTVSS VL: EIVLTQSPATLSLSPGERATLSCSATSSVSYMHWYQQKPGQAPRLLIYSTSNLASGIPARFSGSGSGTDFTLTISSLEPEDFAVYYCQQRSSYPFTFGPGTKLDIK = 33500

QUERY: Given the binder HB2KG (antibody, V domains shown, human IgG1/kappa) VH: QVQLQESGPGLVKPSETLSLTCTVSGFSLTIYGAHWVRQPPGKGLEWLGVIWAGGSTNYNSALMSRLSISKDNSKNQVSLKLSSVTAADTAVYYCARDGSSPYYYSMEYWGQGTLVTVSS VL: EIVLTQSPATLSLSPGERATLSCSATSSVSYMHWYQQKPGQAPRLLIYSTSNLASGIPARFSGSGSGTDFTLTISSLEPEDFAVYYCQQRSSYPFTFGPGTKLDIK , what is its reported EC50?
RESULT: 227
